Source of measurements: patent US20230303690A1

Please respond with reported IL-2, % of BMS, at 6.666666667 ug/mL for every item in the list.
Target: human LAG3 expressed on cells (human) (UniProt P18627)
Sequence (P18627 23-525): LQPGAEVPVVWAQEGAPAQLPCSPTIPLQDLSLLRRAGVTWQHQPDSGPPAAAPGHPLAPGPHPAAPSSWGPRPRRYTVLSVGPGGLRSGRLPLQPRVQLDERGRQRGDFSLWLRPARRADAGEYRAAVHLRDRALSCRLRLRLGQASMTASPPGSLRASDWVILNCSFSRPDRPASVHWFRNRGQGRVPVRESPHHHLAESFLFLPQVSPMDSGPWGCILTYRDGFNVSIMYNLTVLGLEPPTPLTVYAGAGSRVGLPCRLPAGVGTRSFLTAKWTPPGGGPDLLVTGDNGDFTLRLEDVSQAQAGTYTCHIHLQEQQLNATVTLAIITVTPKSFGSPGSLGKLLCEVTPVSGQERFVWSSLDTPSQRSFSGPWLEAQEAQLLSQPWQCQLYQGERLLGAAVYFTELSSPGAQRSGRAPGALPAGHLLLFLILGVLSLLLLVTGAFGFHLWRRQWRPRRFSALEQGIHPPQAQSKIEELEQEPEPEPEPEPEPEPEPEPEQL
Assay: cell-based or functional assay
Write the number in % without appending the unit.

Enquiry: Fill in: IL-2, % of BMS, at 6.666666667 ug/mL of sdAb fusion 25-2015-2 (Fc fusion, not shown: a dimerising Fc or GST) QLQLVESGGGLVQAGGSLRLSCAASGSIESFSFMGWYRQAPGKQRELVAGFTGAASLSFSTYTDAVKGRFTISRDNAKNTVYLQMNSLKPEDTAVYFCNVDPWSQSWPGRYWGQGTQVTVSSGGGGSGGGGSQLQLVESGGGLAQTGGSLRLSCAAAGFTFDDTATGWFRQAPGKNREGVACISSSDGRIHYIDSAKGRFTISKDNAKKTVYLQMDSLKPEDTAVYYCAAARKGSTDCQGAIWGSWGQGTQVIVSSEPKSCDKTHTCPPCPAPELLG is ___
Return: 88.3

Enquiry: Fill in: IL-2, % of BMS, at 6.666666667 ug/mL of sdAb fusion 25-27-3 (Fc fusion, not shown: a dimerising Fc or GST) QLQLVESGGGLVQAGGSLRLSCAASGSIESFSFMGWYRQAPGKQRELVAGFTGAASLSFSTYTDAVKGRFTISRDNAKNTVYLQMNSLKPEDTAVYFCNVDPWSQSWPGRYWGQGTQVTVSSGGGGSGGGGSGGGGSQVQLVESGGGLVQPGGSLRLSCAASGFTLDYYAIGWFRQAPGKEREGVSCIRSSDGSTYYADSVKGRFTISSDNTKNTVYLQMNSLKPEDTAVYYCATDRYSDCRGPYENWGQGTQVTVSSEPKSCDKTHTCPPCPAPELLG is ___
Return: 120

Enquiry: Fill in: IL-2, % of BMS, at 6.666666667 ug/mL of sdAb fusion 25-17-3 (Fc fusion, not shown: a dimerising Fc or GST) QLQLVESGGGLVQAGGSLRLSCAASGSIESFSFMGWYRQAPGKQRELVAGFTGAASLSFSTYTDAVKGRFTISRDNAKNTVYLQMNSLKPEDTAVYFCNVDPWSQSWPGRYWGQGTQVTVSSGGGGSGGGGSGGGGSQLQLVESGGGLVQPGGSLRLSCAASGLTLDGYAIGWFRQAPGKEREGLACISGSDGSTHYLDSVKGRFTISRDNGKNTMALQMNSLQFGDTAIYYCAARRGSCSGSWTYWGQGTQVTVSSEPKSCDKTHTCPPCPAPELLG is ___
Return: 93.2
